Hey, just so you know, these numbers are from patent US6897237B2.

Item-by-item account of pIC50
Biological target: MMP-2 (Homo sapiens)
Sequence (P08253 110-660): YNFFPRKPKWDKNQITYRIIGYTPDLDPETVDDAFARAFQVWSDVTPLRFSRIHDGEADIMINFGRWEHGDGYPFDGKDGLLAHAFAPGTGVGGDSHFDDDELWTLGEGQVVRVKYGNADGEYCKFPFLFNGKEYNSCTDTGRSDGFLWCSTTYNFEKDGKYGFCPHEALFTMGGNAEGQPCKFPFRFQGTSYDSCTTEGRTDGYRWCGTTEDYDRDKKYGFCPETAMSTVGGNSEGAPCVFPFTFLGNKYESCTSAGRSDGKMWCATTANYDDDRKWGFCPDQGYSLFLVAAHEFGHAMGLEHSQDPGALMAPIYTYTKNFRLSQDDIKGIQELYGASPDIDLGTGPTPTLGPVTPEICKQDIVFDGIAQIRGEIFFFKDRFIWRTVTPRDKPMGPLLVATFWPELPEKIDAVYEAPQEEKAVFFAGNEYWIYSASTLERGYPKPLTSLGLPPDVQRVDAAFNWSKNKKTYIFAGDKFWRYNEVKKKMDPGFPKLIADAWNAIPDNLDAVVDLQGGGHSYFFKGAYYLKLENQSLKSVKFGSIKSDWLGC
# pIC50 is unitless: minus log10 of the molar concentration; print number only

Illustrative cases are given below, each with its answer.
O=C(O)CNS(=O)(=O)c1ccc(C#Cc2ccc3ccccc3c2)s1; 5.90
O=C(Nc1ccc(S(=O)(=O)N[C@@H](Cc2ccccc2)C(=O)O)cc1)c1ccc2ccccc2c1; 6.25
O=C(O)[C@H](NS(=O)(=O)c1ccc(C#Cc2ccc3ccccc3c2)cc1)c1ccc(O)cc1; 6.43
C[C@H](NS(=O)(=O)c1ccc(C#Cc2ccc3ccccc3c2)s1)C(=O)O; 5.69
O=C(O)[C@@H](Cc1ccccc1)NS(=O)(=O)c1ccc(-n2nnc(-c3ccc4ccccc4c3)n2)cc1; 6.85
O=C(O)[C@H](NS(=O)(=O)c1ccc(C#Cc2ccc3ccccc3c2)s1)c1ccc(O)cc1; 5.95

Now consider the entry below.
QUERY: Any idea what pIC50 was measured for O=C(O)CNS(=O)(=O)c1ccc(C#Cc2ccc3ccccc3c2)cc1 ?
RESULT: 6.60

----------
Biological target: MMP-9 (Homo sapiens)
Construct: endogenous in cells; purified in house from conditioned medium
Sequence (P14780 107-707 limits assumed): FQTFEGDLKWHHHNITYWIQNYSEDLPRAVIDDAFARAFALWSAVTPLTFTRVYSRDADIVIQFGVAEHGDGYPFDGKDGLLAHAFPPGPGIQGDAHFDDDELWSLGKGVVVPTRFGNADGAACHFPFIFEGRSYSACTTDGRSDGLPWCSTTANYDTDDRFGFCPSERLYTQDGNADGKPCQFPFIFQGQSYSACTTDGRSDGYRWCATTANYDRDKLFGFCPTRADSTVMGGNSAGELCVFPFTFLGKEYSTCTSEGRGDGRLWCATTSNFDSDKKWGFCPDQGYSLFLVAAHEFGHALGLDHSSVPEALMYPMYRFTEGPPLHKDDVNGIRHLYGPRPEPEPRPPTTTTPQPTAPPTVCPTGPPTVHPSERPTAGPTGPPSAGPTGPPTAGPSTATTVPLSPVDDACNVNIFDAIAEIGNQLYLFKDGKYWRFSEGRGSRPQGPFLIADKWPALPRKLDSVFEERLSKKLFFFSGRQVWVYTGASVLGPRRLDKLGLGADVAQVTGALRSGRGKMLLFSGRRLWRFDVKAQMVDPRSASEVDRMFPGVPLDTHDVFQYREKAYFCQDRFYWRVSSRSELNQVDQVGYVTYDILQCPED
Assay: Assay for inhibitory activities on MMPs (fluorogenic peptide substrate): MMP-9
Conditions: substrate MOCAc-Pro-Leu-Gly-Leu-A2Pr(DNP)-Ala-Arg-NH2
reported.property: IC50 (µM)
The response must be a number in µM with no trailing unit.

Known IC50 results, listed for orientation:
O=C(O)[C@@H](Cc1c[nH]c2ccccc12)NS(=O)(=O)c1ccc(C#Cc2ccc3ccccc3c2)s1; 0.75
C[C@H](NS(=O)(=O)c1ccc(C#Cc2ccc3ccccc3c2)s1)C(=O)O; 6.31

QUERY: Request body: readout IC50, system MMP-9 (Homo sapiens), query CSCC[C@H](NS(=O)(=O)c1ccc(C#Cc2ccc3ccccc3c2)s1)C(=O)O . Return the value.
RESULT: 4.9

QUERY: Can you look up IC50 on MMP-9 (Homo sapiens) for CC(C)[C@H](NS(=O)(=O)c1ccc(C#Cc2ccc3ccccc3c2)cc1)C(=O)O ?
RESULT: 0.77

----------
Molecular target: MMP-13 catalytic domain (Homo sapiens, UniProt P45452)
Construct: catalytic domain (^104Tyr˜^267Gly); His-tag; enterokinase digestion-site
Test: Assay for inhibitory activities on MMPs (fluorogenic peptide substrate): MMP-13
Settings: substrate MOCAc-Pro-Leu-Gly-Leu-A2Pr(DNP)-Ala-Arg-NH2
Below, each entry is listed alongside its reported pIC50.
Field pIC50 (float): negative decimal logarithm of the concentration in molar.

Some entries whose results are on file:
O=C(O)[C@H](Cc1c[nH]c2ccccc12)NS(=O)(=O)c1ccc(C#Cc2ccc3ccccc3c2)cc1 [Compound A-15]; 6.05
CC(C)[C@H](NS(=O)(=O)c1ccc(C#Cc2ccc3ccccc3c2)s1)C(=O)O [Compound B-5]; 5.16
O=C(O)[C@H](Cc1ccccc1)NS(=O)(=O)c1ccc(C#Cc2ccc3c(c2)OCO3)cc1 [Compound A-22]; 7.43

Consider the record given below.
QUERY: May I ask what pIC50 has been recorded for O=C(O)[C@H](NS(=O)(=O)c1ccc(C#Cc2ccc3ccccc3c2)s1)c1ccc(O)cc1 [Compound B-8] ?
RESULT: 5.64

----------
Biological target: MMP-8 catalytic domain (Homo sapiens, UniProt P22894)
Construct: catalytic domain (^99Phe˜^262Gly); His-tag; enterokinase digestion-site
Sequence (P22894 99-262): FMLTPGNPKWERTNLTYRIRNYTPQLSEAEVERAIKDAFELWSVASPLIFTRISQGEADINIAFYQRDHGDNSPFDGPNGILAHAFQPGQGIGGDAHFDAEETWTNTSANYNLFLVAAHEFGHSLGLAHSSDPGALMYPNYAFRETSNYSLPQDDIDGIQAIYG
Test: Assay for inhibitory activities on MMPs (fluorogenic peptide substrate): MMP-8
Details: substrate MOCAc-Pro-Leu-Gly-Leu-A2Pr(DNP)-Ala-Arg-NH2
reported.property: pIC50
Recall that pIC50 is obtained by taking minus log10 of the concentration measured in molar.

O=C(O)[C@H](NS(=O)(=O)c1ccc(C#Cc2ccc3ccccc3c2)cc1)c1ccc(O)cc1; 5.44
CC(C)[C@@H](NS(=O)(=O)c1ccc(C#Cc2ccc3ccccc3c2)cc1)C(=O)O; 5.97
O=C(O)[C@H](Cc1ccccc1)NS(=O)(=O)c1ccc(C#Cc2ccc3c(c2)OCO3)cc1; 8.00
C[C@@H](NS(=O)(=O)c1ccc(C#Cc2ccc3ccccc3c2)s1)C(=O)O; 5.68
CC(C)[C@@H](NS(=O)(=O)c1ccc(C#Cc2ccc3ccccc3c2)s1)C(=O)O; 6.27

QUERY: Form field: reported pIC50 of C[C@H](NS(=O)(=O)c1ccc(C#Cc2ccc3ccccc3c2)cc1)C(=O)O
RESULT: 5.61

QUERY: Which pIC50 reading was recorded for the molecule CC(C)[C@H](NS(=O)(=O)c1ccc(C#Cc2ccc3ccccc3c2)s1)C(=O)O ?
RESULT: 5.63

QUERY: What does the record list as pIC50 for CSCC[C@@H](NS(=O)(=O)c1ccc(C#Cc2ccc3ccccc3c2)s1)C(=O)O ?
RESULT: 6.00

QUERY: Bench note: what pIC50 did CSCC[C@H](NS(=O)(=O)c1ccc(C#Cc2ccc3ccccc3c2)s1)C(=O)O show?
RESULT: 5.54

----------
Here, each record is paired with measured IC50 data.
Molecular target: MMP-13 catalytic domain (Homo sapiens, UniProt P45452)
Construct: catalytic domain (^104Tyr˜^267Gly); His-tag; enterokinase digestion-site
Assay: Assay for inhibitory activities on MMPs (fluorogenic peptide substrate): MMP-13
Details: substrate MOCAc-Pro-Leu-Gly-Leu-A2Pr(DNP)-Ala-Arg-NH2
Experimental: In regard to MMP-13, mRNA was prepared from carcinoma cell SW1353 derived from human cartilage stimulate by IL-1, TNF and catalytic domain (^104Tyr˜^267Gly) was amplified with RT-PCR. […] The enzymatic activity on MMPs was analyzed by the method described in “C. […] IC50 values were calculated by using the following formula and each fluorescence values of above four methods (A to D). […]
Report only the number, with the unit nM understood.

O=C(O)[C@@H](Cc1ccccc1)NS(=O)(=O)c1ccc(-n2nnc(-c3ccc4ccccc4c3)n2)cc1; 450
C[C@@H](NS(=O)(=O)c1ccc(C#Cc2ccc3ccccc3c2)s1)C(=O)O; 840

Proceeding to the next compound to report its IC50.
QUERY: Item O=C(O)CNS(=O)(=O)c1ccc(C#Cc2ccc3ccccc3c2)cc1 with MMP-13 catalytic domain (Homo sapiens, UniProt P45452) - IC50?
RESULT: 2880

----------
Molecular target: MMP-12 catalytic domain (Homo sapiens)
Construct: catalytic domain(^100Phe˜^263Gly); His-tag; enterokinase digestion-site
Sequence (P39900 100-263): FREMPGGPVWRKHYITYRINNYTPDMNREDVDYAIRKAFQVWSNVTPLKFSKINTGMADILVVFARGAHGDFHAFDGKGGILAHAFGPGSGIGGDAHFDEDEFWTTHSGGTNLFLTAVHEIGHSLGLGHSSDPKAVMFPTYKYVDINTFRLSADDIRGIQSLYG
Experiment: Assay for inhibitory activities on MMPs (fluorogenic peptide substrate): MMP-12
Details: substrate MOCAc-Pro-Leu-Gly-Leu-A2Pr(DNP)-Ala-Arg-NH2
Label MET when IC50 is strictly below 30 nM; otherwise label NOT MET.

# example entries with known answers
CC(C)C[C@H](NS(=O)(=O)c1ccc(C#Cc2ccc3ccccc3c2)cc1)C(=O)O; MET
CC(C)[C@H](NS(=O)(=O)c1ccc(C#Cc2ccc3ccccc3c2)cc1)C(=O)O; MET
O=C(Nc1ccc(S(=O)(=O)N[C@@H](Cc2ccccc2)C(=O)O)cc1)c1ccc2ccccc2c1; NOT MET
CC(C)[C@@H](NS(=O)(=O)c1ccc(C#Cc2ccc3ccccc3c2)s1)C(=O)O; MET
O=C(O)[C@H](NS(=O)(=O)c1ccc(C#Cc2ccc3ccccc3c2)s1)c1ccc(O)cc1; NOT MET

QUERY: Please determine if O=C(O)[C@H](Cc1c[nH]c2ccccc12)NS(=O)(=O)c1ccc(C#Cc2ccc3ccccc3c2)cc1 is below 30 nM in terms of IC50.
RESULT: NOT MET

QUERY: Strictly below 30 nM: is that where IC50 of O=C(O)[C@@H](Cc1c[nH]c2ccccc12)NS(=O)(=O)c1ccc(C#Cc2ccc3ccccc3c2)s1 sits?
RESULT: MET

----------
Molecular target: MMP-8 catalytic domain (Homo sapiens, UniProt P22894)
Construct: catalytic domain (^99Phe˜^262Gly); His-tag; enterokinase digestion-site; made in house; host or cells: Escherichia coli
Experiment: Assay for inhibitory activities on MMPs (fluorogenic peptide substrate): MMP-8
Type: biochemical
Conditions: substrate MOCAc-Pro-Leu-Gly-Leu-A2Pr(DNP)-Ala-Arg-NH2
Protocol: In regard to MMP-8, catalytic domain (^99Phe˜^262Gly) was amplified with PCR using commercial available Human Bone Marrow cDNA. […] The enzymatic activity on MMPs was analyzed by the method described in “C. […] IC50 values were calculated by using the following formula and each fluorescence values of above four methods (A to D). […]
A collection of compounds and their measured IC50
// return numeric value only (unit: nM, not printed)

CC(C)C[C@H](NS(=O)(=O)c1ccc(C#Cc2ccc3ccccc3c2)cc1)C(=O)O; 580

QUERY: Given the entry C[C@H](NS(=O)(=O)c1ccc(C#Cc2ccc3ccccc3c2)s1)C(=O)O , what IC50 was observed with MMP-8 catalytic domain (Homo sapiens, UniProt P22894)?
RESULT: 7790

QUERY: Could you share what IC50 was measured for CC(C)[C@H](NS(=O)(=O)c1ccc(C#Cc2ccc3ccccc3c2)cc1)C(=O)O , tested on MMP-8 catalytic domain (Homo sapiens, UniProt P22894)?
RESULT: 570
